- Experimental system: CD18-independent counterreceptor for ICAM-R on Jurkat cells
- Test description: inhibition of Jurkat cell adhesion to coated soluble ICAM-R, peptide 1-2 mg/ml
Given measured % Inhibition, output met if it is greater than or equal to 20% and not met if not.

Is % Inhibition for EKIALET [ICAM-R peptide, residues 32-38] at or above 20%?
not met

Is % Inhibition for GERREA [ICAM-R peptide, residues 271-276] at or above 20%?
not met

Is % Inhibition for GDQML [ICAM-R domain 3 peptide (GDQML), residues 230-234] at or above 20%?
met

Is % Inhibition for DGQST [ICAM-1 peptide (DGQST), residues 70-74] at or above 20%?
not met

Is % Inhibition for NGSQI [ICAM-R domain 1 peptide (NGSQI), residues 72-76] at or above 20%?
not met

Is % Inhibition for GDQRL [ICAM-1 peptide (GDQRL), residues 228-232] at or above 20%?
met

The values you see were collected from patent US20030199423A1.
